Data provenance is patent US20260053834A1.

Test system: LAPC4 prostate cancer cells, which express the AKT1 E17K allele
test_protocol: Antiproliferative effects in LAPC4 cells (CellTiter Glo, 72 h)
Format: cell-based
experimental_parameters: Homo sapiens, LAPC4, 72 h, read-out: LAPC4 proliferation IC50: GeoMean IC50
pIC50: −log10 of the molar value.
measurement_label: pIC50

// solved cases for pIC50 follow
Exercise: Which pIC50 is reported for this compound? [2H]C(=O)c1cc(C(=O)N[C@H]2CCc3cc(-n4c(-c5cccnc5N)nc5ccc(-n6ccc(F)n6)nc54)ccc32)ccc1O [Example 190]
Solution: 5.70 to 7.00

Exercise: Which pIC50 is reported for this compound? Nc1ncccc1-c1nc2ccc(-n3cccn3)nc2n1-c1ccc2c(c1)CC[C@@H]2NC(=O)c1cc(C=O)c(O)cc1O [Example 159]
Solution: 5.70 to 7.00

Exercise: Which pIC50 is reported for this compound? Nc1ncccc1-c1nc2ccc(-c3ncc[nH]3)nc2n1-c1ccc2c(c1)CC[C@@H]2NC(=O)c1ccc(O)c(C=O)c1 [Example 194]
Solution: 5.70 to 7.00

Exercise: Which pIC50 is reported for this compound? Nc1ncccc1-c1nc2ccc(-n3cc(CO)cn3)nc2n1-c1ccc2c(c1)CC[C@@H]2NC(=O)c1cc(C=O)c(O)cc1F [Example 138]
Solution: 7.00 to 8.00

Exercise: Which pIC50 is reported for this compound? Nc1ncccc1-c1nc2ccc(-n3cccn3)nc2n1-c1ccc2c(c1)C(O)C[C@@H]2NC(=O)c1ccc(O)c(C=O)c1 (single isomer, unassigned) [Example 98]
Solution: 5.70 to 7.00

Exercise: Which pIC50 is reported for this compound? Nc1ncccc1-c1nc2ccc(-c3ccc(F)cc3)nc2n1-c1ccc2c(c1)CC[C@@H]2NC(=O)c1ccc(O)c(C=O)c1 [Example 20]
Solution: 7.00 to 8.00

Exercise: Which pIC50 is reported for this compound? Nc1ncccc1-c1nc2ccc(-c3cscn3)nc2n1-c1ccc2c(c1)CC[C@@H]2NC(=O)c1ccc(O)c(C=O)c1 [Example 88]
Solution: 7.00 to 8.00

Exercise: Which pIC50 is reported for this compound? Nc1ncccc1-c1nc2ccc(-n3cccn3)nc2n1-c1ccc2c(c1)CC[C@@H]2NC(=O)c1ccc(O)c(C=O)c1 [Example 33]
Solution: 7.00 to 8.00

Further cases:
Exercise: Which pIC50 is reported for this compound? Nc1ncccc1-c1nc2ccc(N3CCOCC3)nc2n1-c1ccc2c(c1)CC[C@@H]2NC(=O)c1ccc(O)c(C=O)c1 [Example 42]
Solution: 5.70 to 7.00

Exercise: Which pIC50 is reported for this compound? Nc1ncccc1-c1nc2ccc(OC3CC3)nc2n1-c1ccc2c(c1)CC[C@@H]2NC(=O)c1ccc(O)c(C=O)c1 [Example 32]
Solution: 5.70 to 7.00

Exercise: Which pIC50 is reported for this compound? Cc1cc(O)c(C=O)cc1C(=O)N[C@H]1CCc2cc(-n3c(-c4cccnc4N)nc4ccc(-n5cccn5)nc43)ccc21 [Example 149]
Solution: 5.70 to 7.00

Exercise: Which pIC50 is reported for this compound? Nc1ncccc1-c1nc2ccc(-c3ccccc3)nc2n1-c1ccc2c(c1)CC[C@@H]2NC(=O)c1ccc(C=O)c(O)c1 [Example 30]
Solution: ≤ 5.70

Exercise: Which pIC50 is reported for this compound? [N-]=[N+]=Nc1c(C(=O)N[C@H]2CCc3cc(-n4c(-c5cccnc5N)nc5ccc(-n6cccn6)nc54)ccc32)cc(C=O)c(O)c1F [Example 218]
Solution: 5.70 to 7.00

Exercise: Which pIC50 is reported for this compound? Nc1ncccc1-c1nc2ccc(-n3cccn3)nc2n1-c1ccc2c(c1)CC[C@@H]2NC(=O)c1cc(F)c(O)c(C=O)c1 [Example 81]
Solution: 5.70 to 7.00

Exercise: Which pIC50 is reported for this compound? Nc1ncccc1-c1nc2ccc(-n3cccn3)nc2n1-c1ccc2c(c1)CC[C@@H]2NC(=O)c1cc(C=O)c(O)cc1F [Example 105]
Solution: 7.00 to 8.00

Exercise: Which pIC50 is reported for this compound? Nc1ncccc1-c1nc2ccc(-n3cncn3)nc2n1-c1ccc2c(c1)CC[C@@H]2NC(=O)c1ccc(O)c(C=O)c1 [Example 97]
Solution: 5.70 to 7.00

Exercise: Which pIC50 is reported for this compound? COc1cc2nc(-c3cccnc3N)n(-c3ccc4c(c3)CC[C@@H]4NC(=O)c3ccc(O)c(C=O)c3)c2nc1-n1cccn1 [Example 215]
Solution: 5.70 to 7.00

Exercise: Which pIC50 is reported for this compound? CS(=O)(=O)Nc1ccc(C(=O)N[C@H]2CCc3cc(-n4c(-c5cccnc5N)nc5ccc(-c6ccccc6)nc54)ccc32)cc1C=O [Example 51]
Solution: 7.00 to 8.00

Exercise: Which pIC50 is reported for this compound? Nc1ncccc1-c1nc2ccc(-c3cnccn3)nc2n1-c1ccc2c(c1)CC[C@@H]2NC(=O)c1cc(F)c(O)c(C=O)c1 [Example 70]
Solution: 5.70 to 7.00

Exercise: Which pIC50 is reported for this compound? C#Cc1ccc2nc(-c3cccnc3N)n(-c3ccc4c(c3)CC[C@@H]4NC(=O)c3ccc(O)c(C=O)c3)c2n1 [Example 50]
Solution: 5.70 to 7.00

Exercise: Which pIC50 is reported for this compound? Cc1cc(C)n(-c2ccc3nc(-c4cccnc4N)n(-c4ccc5c(c4)CC[C@@H]5NC(=O)c4ccc(O)c(C=O)c4)c3n2)n1 [Example 129]
Solution: 5.70 to 7.00

Exercise: Which pIC50 is reported for this compound? Nc1ncccc1-c1nc2ccc(-c3ccccc3)nc2n1-c1ccc2c(c1)CC[C@@H]2NC(=O)c1ccc(NC(=O)C2CC2)c(C=O)c1 [Example 47]
Solution: 7.00 to 8.00

Exercise: Which pIC50 is reported for this compound? Nc1ncccc1-c1nc2c(N3CCC3)cc(-n3cccn3)nc2n1-c1ccc2c(c1)CC[C@@H]2NC(=O)c1ccc(O)c(C=O)c1 [Example 231]
Solution: 5.70 to 7.00

Exercise: Which pIC50 is reported for this compound? Nc1ncccc1-c1nc2ccc(-c3nc(C(F)F)cs3)nc2n1-c1ccc2c(c1)CC[C@@H]2NC(=O)c1ccc(O)c(C=O)c1 [Example 147]
Solution: 7.00 to 8.00

Exercise: Which pIC50 is reported for this compound? Nc1ncccc1-c1nc2ccc(-c3cnn(C(F)F)c3)nc2n1-c1ccc2c(c1)CC[C@@H]2NC(=O)c1ccc(O)c(C=O)c1 [Example 61]
Solution: 7.00 to 8.00

Exercise: Which pIC50 is reported for this compound? CS(=O)(=O)Nc1cc(F)c(C(=O)N[C@H]2CCc3cc(-n4c(-c5cccnc5N)nc5ccc(-n6cccn6)nc54)ccc32)cc1C=O [Example 217]
Solution: ≤ 5.70
